# Experimental Target: Amine oxidase [flavin-containing] B (Homo sapiens, UniProt P27338)
# Sequence (P27338 whole entry): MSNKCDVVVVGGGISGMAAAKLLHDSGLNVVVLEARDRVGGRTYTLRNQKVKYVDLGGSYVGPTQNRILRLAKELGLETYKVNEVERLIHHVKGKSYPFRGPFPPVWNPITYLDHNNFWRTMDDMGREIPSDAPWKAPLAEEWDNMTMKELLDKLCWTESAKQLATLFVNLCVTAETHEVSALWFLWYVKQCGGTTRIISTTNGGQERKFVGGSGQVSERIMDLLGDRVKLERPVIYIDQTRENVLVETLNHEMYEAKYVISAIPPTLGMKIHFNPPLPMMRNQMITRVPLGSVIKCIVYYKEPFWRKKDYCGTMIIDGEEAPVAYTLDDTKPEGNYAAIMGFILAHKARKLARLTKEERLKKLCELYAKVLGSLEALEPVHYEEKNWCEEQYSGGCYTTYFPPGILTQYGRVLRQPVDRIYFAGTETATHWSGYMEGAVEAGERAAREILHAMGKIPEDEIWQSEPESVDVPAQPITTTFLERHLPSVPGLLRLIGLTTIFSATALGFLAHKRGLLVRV
# Procedure Details: Inhibition of recombinant human MAO-B expressed in baculovirus infected BTI insect cell microsomes using kynuramine as substrate after 20 mins by fluorescence spectroscopy
pIC50: −log10 of the molar value.
Would you mind labelling by pIC50? At or over 5 is yes, under is no.

INPUT: Has `O=C1C=CC(=O)C(Cc2ccccc2)=C1` a recorded pIC50 greater than or equal to 5?
OUTPUT: no

INPUT: Textbook exercise: given the entry `O=C1C=CC(=O)C(C2CCCC2)=C1` , state whether its pIC50 is greater than or equal to 5.
OUTPUT: no

INPUT: Decide: is the reported value of pIC50 for `O=C1C=CC(=O)C(OCc2ccccc2)=C1` equal to or greater than 5?
OUTPUT: yes
